- measured-on: Melanocortin receptor 4 (Homo sapiens)
- assay-summary: MC4R beta-arrestin agonists, retest, confirmation, cell-based, luminescence, U2OS (AID 602192)
- experimental-parameters: U2OS MC4R beta-arrestin recruitment, at 8.9 µM, active compounds read high, scaled DMSO 0%, Melanotan II 100%
Hit rate of the full screen: of about 2,400 compounds, about 750 (31%) were called active. The list is a sample of the results.
reported-property: activation (%)
Numbers only here, please. The scale is %.

Below are worked cases with known answers.
molecule	measured-on	activation (%)
O=C(CCCN1C(=O)/C(=C\c2ccco2)SC1=S)Nc1cccc2ccccc12	Melanocortin receptor 4 (Homo sapiens)	-0.83
O=C(CCCN1C(=O)/C(=C/c2cccs2)SC1=S)Nc1ccc(O)cc1	Melanocortin receptor 4 (Homo sapiens)	11.8
COc1ccc(CC(N)c2csc(NC(=O)NC(c3ccccc3)c3ccccc3)n2)cc1 (stereo unspecified)	Melanocortin receptor 4 (Homo sapiens)	17.4

[in] Supply recorded activation for C=CCn1c(SCC(=O)c2ccc(Br)cc2)nnc1C(C)NC(=O)Cc1ccc(OC)cc1 (stereo unspecified) here.
[out] 3.84

[in] Supply recorded activation for `Cc1cccc(C)c1OC(=O)CSc1nnc(-c2ccccc2)o1` here.
[out] 2.94

[in] Supply recorded activation for `COc1cc(/C=C(\C#N)C(=O)Nc2ccc3ccccc3c2)c([N+](=O)[O-])cc1OC` here.
[out] 5.51

[in] Supply recorded activation for `O=C(COC(=O)c1cccc(Br)c1)Nc1cccc2c1C(=O)c1ccccc1C2=O` here.
[out] 8.85

[in] Supply recorded activation for `CN(C)CCCN(C(=O)c1ccc(S(=O)(=O)N2CCCCCC2)cc1)c1nc2ccc(Br)cc2s1` here.
[out] 15.3

[in] Supply recorded activation for `Cn1c(=S)sc2ccc3ccccc3c21` here.
[out] 2.83

[in] Supply recorded activation for `COc1ccc(Nc2oc(-c3ccccc3Cl)nc2C#N)cc1` here.
[out] 6.82

[in] Supply recorded activation for CCOC(=O)c1[nH]c2c(c1-c1ccccc1)C(=O)CC(c1ccc(Cl)cc1)C2 (stereo unspecified) here.
[out] 2.82

[in] Supply recorded activation for `Cc1ccsc1/C=N/Nc1ccc(Cl)nn1` here.
[out] 2.12

[in] Supply recorded activation for `COc1cccc(NC(=S)NC(=O)c2c(Cl)c(C)nn2C)c1` here.
[out] 0.75

[in] Supply recorded activation for `Oc1ccccc1N1CCN(c2ncnc3sc(-c4ccccc4)cc23)CC1` here.
[out] 3.16

[in] Supply recorded activation for `CCCCNc1c(-c2cccc(Sc3ccc(OC)cc3)c2)nc2ccccn12` here.
[out] 5.36

[in] Supply recorded activation for `CCCCCCCCCCOC(=O)Cn1c(COc2cccc(OC)c2)[n+](C)c2ccccc21` here.
[out] 21.6

[in] Supply recorded activation for `COc1cc(NC(=O)c2cncc(-c3ccc(C#N)cc3)c2)cc(C(=O)Nc2cccc(C(F)(F)F)c2)c1` here.
[out] 2.95

[in] Supply recorded activation for `Cc1cc(C)cc(C(=O)OCC(=O)NCCNC(=O)COC(=O)c2cc(C)cc(C)c2)c1` here.
[out] 0.95

[in] Supply recorded activation for `Cc1csc(NC(=O)c2ccc(-c3ccc(Cl)cc3Cl)o2)n1` here.
[out] 9.09

[in] Supply recorded activation for `Cc1cc(OCc2cc(C(=O)NCc3cc(C(C)C)no3)no2)cc(C)c1Cl` here.
[out] -1.7

[in] Supply recorded activation for COc1ccc(C(N)c2csc(NC(=O)Nc3cccc(C(F)(F)F)c3)n2)cc1 (stereo unspecified) here.
[out] 11.5
